Assay Notes: mn = molality of the nth substance listed, in mol/kg
Protocol Conditions: 318.15 K; 100 kPa; Liquid; Capillary tube (Ostwald / Ubbelohde) method; m1 = 0.08
Endpoint Name: viscosity (mPa·s)
Numeric answer only, unit mPa·s assumed.

# count of solved cases: 2
1) COc1cc(-c2cc(-c3ccccc3O)[nH]c(=O)c2C#N)ccc1O + C[S+](C)[O-]    1.399
2) COc1cc(-c2cc(-c3ccc(O)cc3)[nH]c(=O)c2C#N)ccc1O + C[S+](C)[O-]    1.421

// query viscosity value for entry COc1cc(-c2cc(-c3ccccc3)[nH]c(=O)c2C#N)ccc1O + C[S+](C)[O-]
1.37

# input compound: COc1cc(-c2cc(-c3ccc(Cl)cc3)[nH]c(=O)c2C#N)ccc1O + C[S+](C)[O-] ; wanted: its viscosity
1.391
